Measured Target: CB1 receptor (Homo sapiens, UniProt P21554)
Sequence (P21554 whole entry): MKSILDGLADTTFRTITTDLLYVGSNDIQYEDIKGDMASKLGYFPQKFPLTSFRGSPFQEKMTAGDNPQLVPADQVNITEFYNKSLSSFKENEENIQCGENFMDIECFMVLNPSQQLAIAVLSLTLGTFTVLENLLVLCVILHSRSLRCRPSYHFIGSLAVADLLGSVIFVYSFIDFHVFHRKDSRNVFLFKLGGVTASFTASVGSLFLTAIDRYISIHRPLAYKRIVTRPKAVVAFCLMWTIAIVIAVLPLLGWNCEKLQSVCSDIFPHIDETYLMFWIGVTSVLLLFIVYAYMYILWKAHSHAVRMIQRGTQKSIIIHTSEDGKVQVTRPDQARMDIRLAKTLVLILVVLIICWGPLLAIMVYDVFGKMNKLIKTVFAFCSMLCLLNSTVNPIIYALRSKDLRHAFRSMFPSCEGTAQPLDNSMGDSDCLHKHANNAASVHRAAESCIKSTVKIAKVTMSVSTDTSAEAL
Protocol Details: biochemical
Format: binding
Design: expressed in transfected cells; host or cells: CHO cells (membrane preparation)
Test Settings: versus 0.1 nM [3H]CP55,940; CHO cell membranes; mean ± SEM of three to five experiments; read-out: Ki ± SEM Human CB1
Could you mark each record MET if its Ki falls strictly under 7 nM, and NOT MET if it equals or exceeds it?

// below: answered molecules
>>> print(df.to_string())
                                   molecule  class_label
0  CCCCCn1nc(C(=O)Nc2cccc3cccnc23)c2ccccc21 [Compound 10, THJ]      NOT MET
1  CN1CCCCC(Cn2cc(C(=O)C3C(C)(C)C3(C)C)c3ccccc32)C1 (stereo not drawn) [Compound 44, AB005-azepane-isomer]      NOT MET
2  CCCC(F)Cn1cc(C(=O)C2C(C)(C)C2(C)C)c2ccccc21 (stereo not drawn) [Compound 39, XLR-11-2-fluoropentyl-isomer]      NOT MET
3  O=C(Oc1cccc2cccnc12)c1cn(Cc2ccc(F)cc2)c2ccccc12 [Compound 26, FUB-PB-22]          MET
4  CCCCCn1cc(C(=O)c2ccccc2OC)c2ccccc21 [Compound 33, RCS-4]      NOT MET

[Q] Hello, I'm reviewing records and need to know if Ki of CCCCCn1nc(C(=O)Nc2cccc3ccccc23)c2ccccc21 [Compound 8, MN-18] is below 7 nM. Could you check?
[A] MET

[Q] Quick check: Ki of O=C(Nc1cccc2ccccc12)c1cn(CCCCCF)c2ccccc12 [Compound 5, 5F-NNEI] under 7 nM?
[A] MET

[Q] is_below(Ki, 7 nM) for O=C(c1cn(CCCCCF)c2ccccc12)C12CC3CC(CC(C3)C1)C2 [Compound 36, 5F-AB001] ?
[A] NOT MET

[Q] Please let me know if O=C(Nc1cccc2ccccc12)c1nn(CCCCCF)c2ccccc12 [Compound 9, 5F-MN-18] shows Ki below 7 nM.
[A] MET

* * *

Measured Target: human GPR18 (Homo sapiens, UniProt Q14330)
Construct: β-galactosidase enzyme fragment (PathHunter complementation tag)
Sequence (Q14330 whole entry, the tested form may be a part): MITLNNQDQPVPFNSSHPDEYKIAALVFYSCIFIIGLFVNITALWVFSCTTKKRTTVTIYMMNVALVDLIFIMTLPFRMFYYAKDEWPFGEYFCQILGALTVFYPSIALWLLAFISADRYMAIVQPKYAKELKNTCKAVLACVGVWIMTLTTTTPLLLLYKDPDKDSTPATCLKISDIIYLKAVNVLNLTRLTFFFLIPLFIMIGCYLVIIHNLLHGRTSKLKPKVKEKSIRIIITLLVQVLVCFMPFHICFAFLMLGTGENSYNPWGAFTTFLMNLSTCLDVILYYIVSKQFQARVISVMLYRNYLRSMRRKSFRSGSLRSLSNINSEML
Protocol Details: β-Arrestin recruitment assay (PathHunter) at GPR18
Format: cell-based
Below, each entry is listed alongside its reported IC50.

Sample records with IC50:
In [3]: df
Out[3]:
                                   compound                           measured_target  endpoint   result
0  O=C(NC12CC3CC(CC(C3)C1)C2)c1cn(CCCCCF)c2ccccc12  human GPR18 (Homo sapiens, UniProt Q14330)      IC50  > 10 µM
1  CCCC(F)Cn1cc(C(=O)C2C(C)(C)C2(C)C)c2ccccc21 (stereo not drawn) [Compound 39, XLR-11-2-fluoropentyl-isomer]  human GPR18 (Homo sapiens, UniProt Q14330)      IC50  > 10 µM
2  O=C(c1cn(CCCCCF)c2ccccc12)C12CC3CC(CC(C3)C1)C2  human GPR18 (Homo sapiens, UniProt Q14330)      IC50   ~10 µM
3  O=C(Nc1cccc2cccnc12)c1nn(CCCCCF)c2ccccc12  human GPR18 (Homo sapiens, UniProt Q14330)      IC50  > 10 µM
4  CCCCCn1nc(C(=O)Nc2cccc3cccnc23)c2ccccc21  human GPR18 (Homo sapiens, UniProt Q14330)      IC50  > 10 µM
5  O=C(Nc1cccc2ccccc12)c1cn(CCCCCF)c2ccccc12  human GPR18 (Homo sapiens, UniProt Q14330)      IC50  > 10 µM
6      O=C(NCc1ccccc1)c1cn(CCCCCF)c2ccccc12  human GPR18 (Homo sapiens, UniProt Q14330)      IC50  > 10 µM

For this compound ( O=C(Oc1cccc2cccnc12)c1cn(CC2CCCCC2)c2ccccc12 ), measured IC50 is > 10 µM

The values you see were collected from paper PMC4929166.
